B1: ZBED2 (parent)
chain: FHLAPARAGHHPNQYATCRLCGRQ

variants of: B1; test: protein stability index of a GFP-peptide fusion (GPS, HEK-293T) (PSI 1-6); higher = more stable; settings: c terminus: a fixed tail appended;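 also: lentivirally expressed fusions sorted by FACS into six bins by GFP to DsRed ratio, PSI derived from sequencing read proportions per bin multiplied by bin number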

{"columns": ["primary sequence", "protein stability index"],
 "data": [
  ["FKLAPARAGHHPNQYATCRLCGRQ", 1.95],
  ["FHLAPARAGHHINQYATCRLCGRQ", 1.95],
  ["FHLALARAGHHPNQYATCRLCGRQ", 2],
  ["FHLAPARAGHHPNQYATCRLCGDQ", 2],
  ["FHLHPARAGHHPNQYATCRLCGRQ", 1.95],
  ["FHLAPARAWHHPNQYATCRLCGRQ", 2.05],
  ["FHLAPARAGHHPNQYATCRLNGRQ", 1.96],
  ["FHLAPARAGHHPNQYATCRLCHRQ", 2.05],
  ["FHLAPARAGHEPNQYATCRLCGRQ", 2.04],
  ["FHLAQARAGHHPNQYATCRLCGRQ", 2.02]
]}
